experiment: Metabolic stability in human liver microsomes assessed as half life in presence of NADPH regenerating system measured for 5 to 60 mins by LC/MS/MS analysis; format: ADME, Microsome; details: time 5-60 min
QUANTITY KIND: half-life (min)
Return type: number; implicit unit min.

Req: Let me know recorded half-life for `COc1ccc(OCc2nn3c(-c4ccc(Br)cc4)nnc3s2)cc1` , thanks.
Resp: 1.1

====

biological target: Cytochrome P450 2C9 (Homo sapiens)
Sequence (P11712 whole entry): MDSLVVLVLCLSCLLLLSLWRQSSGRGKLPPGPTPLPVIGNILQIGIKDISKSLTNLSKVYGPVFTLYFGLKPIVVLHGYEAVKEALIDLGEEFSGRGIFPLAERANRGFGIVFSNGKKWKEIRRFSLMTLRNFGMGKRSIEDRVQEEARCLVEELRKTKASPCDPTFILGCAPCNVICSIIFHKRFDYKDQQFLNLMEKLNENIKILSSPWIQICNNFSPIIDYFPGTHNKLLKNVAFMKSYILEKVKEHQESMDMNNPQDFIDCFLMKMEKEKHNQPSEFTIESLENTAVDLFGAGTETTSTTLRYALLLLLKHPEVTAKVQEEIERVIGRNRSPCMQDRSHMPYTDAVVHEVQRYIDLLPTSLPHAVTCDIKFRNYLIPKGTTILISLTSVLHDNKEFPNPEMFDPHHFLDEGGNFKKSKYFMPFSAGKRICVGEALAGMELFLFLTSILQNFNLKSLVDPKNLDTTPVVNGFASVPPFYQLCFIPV
QUANTITY KIND: IC50
Don't forget the unit after the number, please.

Req: Under Cytochrome P450 2C9 (Homo sapiens): report IC50 of `COc1ccc(OCc2nn3c(-c4ccc(Br)cc4)nnc3s2)cc1` .
Resp: 560 nM

====

experiment: Inhibition of Mycobacterium tuberculosis ArgJ assessed as inhibition constant by measuring change in blue shift by ANS dye based displacement assay
QUANTITY KIND: pKi
Hey, just a heads up that pKi is the negative log base 10 of the concentration in molar.

Req: Identify measured pKi corresponding to `O=C(Nc1cccc2c(=O)cc(-c3nnn[nH]3)oc12)c1ccc(OCCCCc2ccccc2)cc1`
Resp: 3.86

====

assay: Metabolic stability in mouse liver microsomes assessed as half life in presence of NADPH regenerating system measured for 5 to 60 mins by LC/MS/MS analysis; format: ADME, Microsome; settings: time 5-60 min
QUANTITY KIND: half-life (min)
Give just the number in min; leave the unit off.

Req: # return recorded half-life for input `COc1ccc(OCc2nn3c(-c4ccc(Br)cc4)nnc3s2)cc1`
Resp: 1.2

====

system: Mycobacterium tuberculosis; assay: microbe, parasite or virus in culture; conditions: H37Rv
Description: Antibacterial activity against Mycobacterium tuberculosis H37Rv assessed as inhibition of bacterial growth
Values of MIC strictly less than 2 µM map to Met, and values of at least 2 µM map to Not met.

Example results:
1. OC1(c2ccc(OC(F)F)cc2)C[N+](c2ccccc2)=C2CCCCN21.[Br-] (stereo unspecified)	Met
2. O=C(Nc1nnc(C2CCCO2)o1)c1ccc([N+](=O)[O-])o1 (stereo unspecified)	Met
3. COc1ccc(OCc2nn3c(-c4ccc(Br)cc4)nnc3s2)cc1	Not met
4. CC(C)=CCC/C(C)=C/CNCCNC1C2CC3CC(C2)CC1C3 (stereo unspecified)	Met
5. O=S(=O)(NCCO)c1ccc(-c2nnn(Cc3ccc(F)cn3)n2)cc1	Met

Turning to the following compound.
Req: Regarding CCc1cc(C(N)=S)ccn1 [ETHIONAMIDE] , kindly confirm whether its MIC is beneath 2 µM.
Resp: Not met

====

assay: Half life in BALB/c mouse at 200 mg/kg, po measured for 0.5 to 24 hrs by LC-MS analysis; assay type: ADME, organism-based; details: in vivo, time 0.5-24 hrs
QUANTITY KIND: half-life

Req: Please list half-life recorded for the compound `Cc1cn2c(C(=O)NCc3ccc(N4CCN(c5ccc(C(F)(F)F)cn5)CC4)c(F)c3)c(C)nc2s1`
Resp: > 24 h

====

assay: Solubility of the compound; assay type: physicochemical
Reported values of solubility for individual entries
Form entry: value (µM) — number only.

Recorded solubility, per entry:
1. FC(F)(F)Oc1ccc(Oc2ccc(CN3CCC4(CC3)OCCc3sccc34)cc2)cc1	6
2. O=S1(=O)C[C@H](O)[C@@H](N2CCN(c3ccc(F)cc3Cl)CC2)C1	434

Req: Check the records and state solubility for `O=c1nc(N2CCN(S(=O)(=O)C3CC3)CC2)sc2c([N+](=O)[O-])cc(C(F)(F)F)cc12`
Resp: 19
